Values were extracted from PubChem BioAssay (NCI).

# System: UACC-257 melanoma
# assay-protocol: NCI-60 one-dose screen, 48 h (100 = growth as untreated, 0 = no growth, -100 = all killed)
# assay-setup: 10 µM unless noted
The panel holds about 83,000 compounds, 20% with a hit somewhere; the sample as a whole holds those more often.
Doc: threshold 80% (exclusive). Items with growth beneath it return met; others return not met.

[
  {
    "compound": "CC(Cc1cccc(C(F)(F)F)c1)NCCOC(=O)c1ccccc1 (centres undefined)",
    "category-label": "not met"
  },
  {
    "compound": "CCN(CC)CCNCC(O)Cc1ccc(OC)cc1 (centres undefined)",
    "category-label": "not met"
  },
  {
    "compound": "COc1cc2c(/C=C3/C(=O)Nc4ccc(O)cc43)c(Cl)n(Cc3cc(OC)c(OC)c(OC)c3)c2cc1C",
    "category-label": "met"
  }
]

Qu. # check: growth < 80% for OCc1cnccc1NC12CC3CC(CC(C3)C1)C2
Ans. not met

Qu. # check: growth < 80% for COc1ccccc1C(OC(C)=O)OC(C)=O
Ans. not met

Qu. # check: growth < 80% for O=C(NCCNc1nccc(-c2c(-c3cccc(O)c3)nc3sccn23)n1)c1cc(N2CCOCC2)cc(C(F)(F)F)c1
Ans. met

Qu. # check: growth < 80% for Cc1cc(N2CCOCC2)nc(N(CCNc2ccnc3cc(Cl)ccc23)Cc2ccco2)n1
Ans. met

Qu. # check: growth < 80% for CC/C(=C(\CC)c1ccc(OCCN(CC)CC)cc1)c1ccc(OCCN(CC)CC)cc1
Ans. met

Qu. # check: growth < 80% for Cc1ccc[n+](CC(=O)c2cccc3ccccc23)c1
Ans. not met

Qu. # check: growth < 80% for COc1ccc(-c2cc3ccc(N(C)C)cc3nc2N)c(F)c1
Ans. met

Qu. # check: growth < 80% for C#C[C@@]1(O)[C@@H](CO)O[C@@H](n2cc(C(F)(F)F)c3c(N)ncnc32)[C@@H]1O
Ans. met

Qu. # check: growth < 80% for S=c1n(CNc2ccc(Cl)nn2)nc(-c2cc(Cl)cc(Cl)c2Cl)n1/N=C/c1ccc(Cl)cc1
Ans. not met

Qu. # check: growth < 80% for Cc1cc(C)c(O)c(C(=O)CC(Br)C(=O)O)c1 (centres undefined)
Ans. not met

Qu. # check: growth < 80% for COc1ccc(C(=O)NC(=O)Nc2ccc3c(c2)NC(=O)/C3=C\c2[nH]c(C)c(C(=O)O)c2C)cc1
Ans. not met

Qu. # check: growth < 80% for CS(=O)(=O)Nc1cccc(-c2ccc3ncnc(Nc4ccc(F)c(Cl)c4)c3c2)c1
Ans. met

Qu. # check: growth < 80% for COC(OC)C1(c2ccccc2)NC(=O)NC1=O (centres undefined)
Ans. not met

Qu. # check: growth < 80% for O=C(N/N=C1\SCC(=O)N1c1ccccc1)c1cc(-c2cc3ccccc3o2)nn1-c1ccccc1
Ans. not met

Qu. # check: growth < 80% for Cc1cccc(CC(=O)c2ccccc2)n1
Ans. not met

Qu. # check: growth < 80% for COc1ccc(OC)c(NCC(=O)n2nc(/C=C\c3ccc(O)c(OC)c3)cc2/C=C\c2ccc(O)c(OC)c2)c1
Ans. met

Qu. # check: growth < 80% for Fc1ccc(Nc2ncnc3ccc(-c4cn[nH]c4)cc23)cc1Cl
Ans. not met
